# TESTED TARGET: Recombinant human KIF18A (1-467His-tagged) protein (Homo sapiens)
# Construct: Recombinant human KIF18A (1-467His-tagged) protein; His
# ASSAY REMARKS: KIF18A enzyme assay (microtubule-stimulated ATPase activity, ADP-Glo)
# CONDITION CONTEXT: 30 nM KIF18A, 75 μM ATP, 30 μg/mL pig microtubules; read-out: Inhibitory activity against KIF18A IC50
Below, each entry is listed alongside its reported IC50.
REPORTED METRIC: IC50

# MOLECULE, RESULT
rows = [
    ("CC1(F)CCN(c2nc(NC(=O)c3ccc(NS(=O)(=O)CCO)cc3N3CCC4(CC3)CC4)ccc2OCF)C1 (stereo not drawn)", "≤ 100 nM"),
    ("CC(C)(CO)Nc1nc(NC(=O)c2ccc(S(=O)(=O)NCCO)cc2N2CCC3(CC2)CC3)ccc1[N+](=O)[O-]", "≤ 100 nM"),
    ("CSc1ccc(NC(=O)c2cnc(NS(=O)(=O)CCO)cc2N2CCC3(CC2)CC3)nc1OCCC(F)(F)F", "≤ 100 nM"),
    ("O=C(Nc1ccc([N+](=O)[O-])c(N2CCC(F)(F)CC2)n1)c1cnc(NS(=O)(=O)CCO)cc1N1CCC2(CC1)CC2", "≤ 100 nM"),
    ("COc1ccc(NC(=O)c2cnc(S(=O)(=O)NCCO)cc2N2CCC3(CC2)CC3)nc1N1CCC(C)(F)C1 (stereo not drawn)", "≤ 100 nM"),
    ("COc1ccc(NC(=O)c2cnc(NS(=O)(=O)CCO)cc2N2CCC3(CC2)CC3)nc1N1CCC2(CC2)C1", "≤ 100 nM"),
    ("C[C@@H]1CN(c2nc(NC(=O)c3ccc(NS(=O)(=O)CCO)cc3N3CCC4(CC3)CC4)ccc2OCF)CCO1", "≤ 100 nM"),
    ("O=C(Nc1ccc(S(=O)(=O)NCCO)cc1N1CCC2(CC1)CC2)c1ccc(OCF)c(N2CCC3(CC3)C2)c1", "100 to 500 nM"),
    ("O=C(Nc1ccc([N+](=O)[O-])c(N2CCC3(CC3)C2)c1)c1cnc(NS(=O)(=O)CCO)cc1N1CCC2(CC1)CC2", "≤ 100 nM"),
    ("O=C(Nc1ccc(NS(=O)(=O)CCO)cc1N1CCC2(CC1)CC2)c1ccc(OCF)c(N2CCC3(CC3)C2)n1", "≤ 100 nM"),
    ("O=C(Nc1ccc(S(=O)(=O)NCCO)cc1N1CCC2(CC1)CC2)c1ccc([N+](=O)[O-])c(N2CCC(F)(F)CC2)c1", "100 to 500 nM"),
    ("COc1ccc(NC(=O)c2cnc(S(=O)(=O)NCCO)cc2N2CCC3(CC2)CC3)nc1N1CCO[C@@H](C)C1", "≤ 100 nM"),
    ("O=C(Nc1ccc([N+](=O)[O-])c(N2CC3CC3C2)n1)c1ccc(NS(=O)(=O)CCO)cc1N1CCC2(CC1)CC2 (stereo not drawn)", "≤ 100 nM"),
    ("CC(C)(CO)Nc1nc(NC(=O)c2cnc(S(=O)(=O)NCCO)cc2N2CCC3(CC2)CC3)ccc1[N+](=O)[O-]", "≤ 100 nM"),
    ("O=C(Nc1ccc(S(=O)(=O)NCCO)cc1N1CCC2(CC1)CC2)c1ccc([N+](=O)[O-])c(OC2CCC2)n1", "100 to 500 nM"),
    ("C[C@@H]1CN(c2nc(C(=O)Nc3cnc(S(=O)(=O)N[C@@H](C)CO)cc3N3CCC4(CC3)CC4)ccc2[N+](=O)[O-])CCO1", "100 to 500 nM"),
    ("COc1ccc(C(=O)Nc2ccc(S(=O)(=O)NCCO)cc2N2CCC3(CC2)CC3)nc1N1CCO[C@@H](C)C1", "≤ 100 nM"),
    ("O=C(Nc1ccc(S(=O)(=O)NCCO)cc1N1CCC2(CC1)CC2)c1ccc(OCF)c(N2CCC3(CC3)C2)n1", "100 to 500 nM"),
    ("O=C(Nc1ccc(OCF)c(N2CCC(F)(F)CC2)c1)c1ccc(S(=O)(=O)NCCO)cc1N1CCC2(CC1)CC2", "≤ 100 nM"),
    ("O=C(Nc1ccc(OCF)c(N2CC(F)(F)C2)n1)c1cnc(S(=O)(=O)NCCO)cc1N1CCC2(CC1)CC2", "≤ 100 nM"),
    ("C[C@H](CO)NS(=O)(=O)c1ccc(C(=O)Nc2ccc(OCF)c(N3CCO[C@H](C)C3)n2)c(N2CCC3(CC2)CC3)c1", "≤ 100 nM"),
    ("O=C(Nc1ccc([N+](=O)[O-])c(N2CCOCC2)n1)c1ccc(S(=O)(=O)NCCO)cc1N1CCC2(CC1)CC2", "≤ 100 nM"),
    ("C[C@@H]1CN(c2nc(NC(=O)c3cnc(NS(=O)(=O)[C@@H](C)CO)cc3N3CCC4(CC3)CC4)ccc2OCF)CCO1", "≤ 100 nM"),
    ("O=C(Nc1ccc([N+](=O)[O-])c(N2CCOCC2)c1)c1ccc(S(=O)(=O)NCCO)cc1N1CCC2(CC1)CC2", "≤ 100 nM"),
    ("C[C@@H]1CN(c2cc(NC(=O)c3cnc(S(=O)(=O)NCCO)cc3N3CCC4(CC3)CC4)ccc2OCF)CCO1 [Compound 402]", "≤ 100 nM"),
    ("O=C(Nc1ccc(OCF)c(N2CCC3(CC3)C2)c1)c1cnc(NS(=O)(=O)CCO)cc1N1CCC2(CC1)CC2", "≤ 100 nM"),
    ("O=C(Nc1ccc(OCF)c(OCCC(F)(F)F)c1)c1cnc(NS(=O)(=O)CCO)cc1N1CCC2(CC1)CC2", "≤ 100 nM"),
]

###

# TESTED TARGET: Recombinant human KIF18A (1-467His-tagged) protein (Homo sapiens, UniProt Q8NI77)
# Construct: Recombinant human KIF18A (1-467His-tagged) protein; His
# Sequence (Q8NI77 1-467): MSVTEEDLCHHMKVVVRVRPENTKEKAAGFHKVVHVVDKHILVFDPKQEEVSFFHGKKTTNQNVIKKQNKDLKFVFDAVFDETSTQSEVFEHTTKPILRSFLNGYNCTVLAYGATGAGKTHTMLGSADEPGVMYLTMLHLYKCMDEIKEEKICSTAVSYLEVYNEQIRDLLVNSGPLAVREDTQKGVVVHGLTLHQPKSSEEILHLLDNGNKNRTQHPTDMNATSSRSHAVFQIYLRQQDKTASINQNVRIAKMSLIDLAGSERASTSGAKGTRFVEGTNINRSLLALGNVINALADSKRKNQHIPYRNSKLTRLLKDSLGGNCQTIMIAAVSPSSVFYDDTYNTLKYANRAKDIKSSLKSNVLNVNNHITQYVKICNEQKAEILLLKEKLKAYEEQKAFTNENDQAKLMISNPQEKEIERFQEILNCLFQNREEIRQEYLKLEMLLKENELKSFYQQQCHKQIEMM
# Sequence (P02550 whole entry partner): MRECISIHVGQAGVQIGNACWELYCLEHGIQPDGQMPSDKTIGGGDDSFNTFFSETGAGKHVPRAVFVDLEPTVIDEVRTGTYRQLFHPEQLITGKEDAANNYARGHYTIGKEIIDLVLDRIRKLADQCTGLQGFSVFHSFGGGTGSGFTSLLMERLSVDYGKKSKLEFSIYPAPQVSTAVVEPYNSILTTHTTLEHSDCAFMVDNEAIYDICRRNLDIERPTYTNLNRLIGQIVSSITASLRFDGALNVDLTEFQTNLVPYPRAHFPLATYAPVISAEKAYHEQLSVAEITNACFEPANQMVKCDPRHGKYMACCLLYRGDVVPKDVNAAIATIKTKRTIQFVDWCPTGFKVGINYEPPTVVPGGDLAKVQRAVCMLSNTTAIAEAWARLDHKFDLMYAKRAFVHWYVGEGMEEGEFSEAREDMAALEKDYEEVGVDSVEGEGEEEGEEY
# Sequence (P02554 whole entry partner): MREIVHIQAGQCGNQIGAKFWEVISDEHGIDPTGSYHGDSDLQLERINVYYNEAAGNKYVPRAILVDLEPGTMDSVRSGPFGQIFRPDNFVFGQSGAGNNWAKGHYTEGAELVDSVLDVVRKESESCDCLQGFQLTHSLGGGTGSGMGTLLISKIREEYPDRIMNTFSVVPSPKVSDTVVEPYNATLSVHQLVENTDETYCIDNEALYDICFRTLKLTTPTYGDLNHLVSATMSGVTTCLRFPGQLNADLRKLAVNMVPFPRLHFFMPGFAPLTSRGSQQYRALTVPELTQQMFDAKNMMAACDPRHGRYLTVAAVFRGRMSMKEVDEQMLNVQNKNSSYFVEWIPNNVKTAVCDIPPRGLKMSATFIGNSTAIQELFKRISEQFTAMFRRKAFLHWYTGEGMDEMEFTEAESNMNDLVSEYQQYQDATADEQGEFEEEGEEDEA
# ASSAY REMARKS: KIF18A enzyme assay (microtubule-stimulated ATPase activity, ADP-Glo)
# CONDITION CONTEXT: 30 nM KIF18A, 75 μM ATP, 30 μg/mL pig microtubules; read-out: Inhibitory activity against KIF18A IC50
pIC50: −log10 of the molar value.
Each entry below carries its recorded pIC50.

# COMPOUND, pIC50
data = [
    ("CC1(F)CCN(c2nc(C(=O)Nc3ccc(NS(=O)(=O)CCO)cc3N3CCC4(CC3)CC4)ccc2[N+](=O)[O-])C1 (centres unmarked)", "≥ 7.00"),
    ("COc1ccc(NC(=O)c2ccc(S(=O)(=O)NCCO)cc2N2CCC3(CC2)CC3)nc1OC1CCC1", "≥ 7.00"),
    ("O=C(Nc1ccc(S(=O)(=O)NCCO)cc1N1CCC2(CC1)CC2)c1ccc(OCF)c(N2CC3CC3C2)c1 (centres unmarked)", "6.30 to 7.00"),
    ("CC1(F)CCN(c2cc(C(=O)Nc3ccc(NS(=O)(=O)CCO)cc3N3CCC4(CC3)CC4)ccc2OCF)C1 (centres unmarked)", "≥ 7.00"),
    ("O=C(Nc1ccc([N+](=O)[O-])c(N2CC(F)(F)C2)c1)c1ccc(S(=O)(=O)NCCO)cc1N1CCC2(CC1)CC2", "≥ 7.00"),
    ("COc1ccc(C(=O)Nc2cnc(NS(=O)(=O)[C@@H](C)CO)cc2N2CCC3(CC2)CC3)nc1N1CCC(F)(F)CC1", "≥ 7.00"),
    ("CSc1ccc(NC(=O)c2cnc(NS(=O)(=O)CCO)cc2N2CCC3(CC2)CC3)cc1N1CCO[C@@H](C)C1", "≥ 7.00"),
    ("O=C(Nc1ccc(NS(=O)(=O)CCO)cc1N1CCC2(CC1)CC2)c1ccc(OCF)c(OCCC(F)(F)F)c1", "≥ 7.00"),
    ("C[C@@H](CO)S(=O)(=O)Nc1cc(N2CCC3(CC2)CC3)c(C(=O)Nc2ccc(OCF)c(N3CCC(F)(F)CC3)c2)cn1", "≥ 7.00"),
    ("CC(C)(CO)Nc1cc(NC(=O)c2cnc(S(=O)(=O)NCCO)cc2N2CCC3(CC2)CC3)ccc1[N+](=O)[O-]", "≥ 7.00"),
    ("O=C(Nc1ccc(NS(=O)(=O)CCO)cc1N1CCC2(CC1)CC2)c1ccc(OCF)c(N2CC3CC3C2)c1 (centres unmarked)", "≥ 7.00"),
    ("C[C@H]1CN(c2nc(C(=O)Nc3ccc(NS(=O)(=O)CCO)cc3N3CCC4(CC3)CC4)ccc2OCF)CCO1", "≥ 7.00"),
    ("O=C(Nc1ccc(NS(=O)(=O)CCO)cc1N1CCC2(CC1)CC2)c1ccc(OCF)c(N2CCC(F)(F)CC2)n1", "≥ 7.00"),
    ("CC(C)(CO)Nc1cc(C(=O)Nc2ccc(S(=O)(=O)NCCO)cc2N2CCC3(CC2)CC3)ccc1OCF", "6.30 to 7.00"),
]

Source listed as patent US20260158017A1.
